These data points were gathered from the supplement of paper PMC11451515.

System: NOMO1
Assay: cell viability relative to DMSO control; higher = less cytotoxic
Conditions: RPMI 5 mM glucose + 10% FBS; 48 h; 0.19 µM
PROPERTY MEASURED: cell viability (%)
Give your result in % as a bare value.

Qu. So what's the measured cell viability for this one? `N#C/N=C(\NCCCCCCOc1ccc(Cl)cc1)Nc1ccncc1`
Ans. 9.97

Qu. Continue with `COc1cc(C(=O)NS(=O)(=O)c2ccccc2C)ccc1Cc1cn(C)c2ccc(NC(=O)OC3CCCC3)cc12`
Ans. 86.5

Qu. Same question for `OC[C@H]1O[C@@H](Oc2cc(O)cc(/C=C/c3ccc(O)cc3)c2)[C@H](O)[C@@H](O)[C@@H]1O` please.
Ans. 106

Qu. Check CC(O)C1C2C(C)\C(=C(/N2C1=O)C(O)=O)SC3CNC(C3)C(=O)N(C)C (configuration not stated) too.
Ans. 84.4

Qu. Also, COc1cccc2c1CCCC2CCCN1CCN(C2CCCCC2)CC1 (configuration not stated) please.
Ans. 103

Qu. # repeat for `C[C@H]1O[C@H](C[C@H](O)[C@@H]1O)O[C@H]2[C@@H](O)C[C@@H](O[C@@H]2C)O[C@H]3[C@@H](O)C[C@@H](O[C@@H]3C)O[C@H]4CC[C@@]5(C)[C@H](CC[C@@H]6[C@@H]5C[C@@H](O)[C@]7(C)[C@H](CC[C@]67O)C/8=C/C(=O)OC8)C4`
Ans. 95.8

Qu. What do you have for `c1ccc(-c2oc3ncnc(NC[C@@H]4CCCO4)c3c2-c2ccccc2)cc1` ?
Ans. 120
